All figures here come from patent US8637237B2.

# assayedSystem: FXR (Rattus norvegicus, UniProt Q62735)
# Sequence (Q62735 1-469): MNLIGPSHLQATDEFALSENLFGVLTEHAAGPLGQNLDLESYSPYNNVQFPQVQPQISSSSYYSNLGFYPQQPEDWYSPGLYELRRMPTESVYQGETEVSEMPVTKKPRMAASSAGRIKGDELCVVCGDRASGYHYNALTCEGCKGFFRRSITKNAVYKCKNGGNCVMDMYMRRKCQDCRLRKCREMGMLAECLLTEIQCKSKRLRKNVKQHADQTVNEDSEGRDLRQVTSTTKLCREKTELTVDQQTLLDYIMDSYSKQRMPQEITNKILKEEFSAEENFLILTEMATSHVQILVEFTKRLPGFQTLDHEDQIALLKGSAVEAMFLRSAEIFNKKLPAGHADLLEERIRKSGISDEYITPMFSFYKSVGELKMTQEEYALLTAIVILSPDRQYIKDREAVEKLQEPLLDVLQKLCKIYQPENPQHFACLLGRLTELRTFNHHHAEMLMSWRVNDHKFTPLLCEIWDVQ
# Sequence (P28700 1-467 partner): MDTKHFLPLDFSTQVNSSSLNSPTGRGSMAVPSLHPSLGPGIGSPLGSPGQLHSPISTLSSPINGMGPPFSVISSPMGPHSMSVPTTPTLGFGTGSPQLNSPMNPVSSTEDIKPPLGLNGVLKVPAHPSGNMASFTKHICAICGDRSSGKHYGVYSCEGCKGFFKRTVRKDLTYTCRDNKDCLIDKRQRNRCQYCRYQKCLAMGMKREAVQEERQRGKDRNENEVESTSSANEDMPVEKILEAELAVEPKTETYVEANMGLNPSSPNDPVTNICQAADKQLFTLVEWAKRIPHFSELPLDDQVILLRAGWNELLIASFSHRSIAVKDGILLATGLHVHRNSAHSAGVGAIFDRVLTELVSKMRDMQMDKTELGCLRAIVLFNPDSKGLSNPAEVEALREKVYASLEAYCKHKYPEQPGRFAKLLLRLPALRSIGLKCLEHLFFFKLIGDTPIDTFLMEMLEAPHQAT
# measurementProtocol: cell-based
# testContext: dose not stated
measuredProperty: FXR-dependent activity, induction

Reference set (8 entries):
COP(=S)(OC)SCN1C(=O)c2ccccc2C1=O    inactive
COc1ccc2c(c1)OC(C)(C)C=C2    15 fold
CC1=C[C@]23C(=O)[C@@H](C=C(CO)[C@@H](O)[C@]2(O)[C@H]1O)[C@H]1[C@@H](C[C@H]3C)C1(C)C    inactive
OCc1ccc2c(c1)OCO2    inactive
COC1=C(OC)C(=O)C(C/C=C(\C)CC/C=C(\C)CCC=C(C)C)=C(C)C1=O    5 fold
COc1cc2c(cc1OC)OC(C)(C)C=C2    15 fold
C=C(C)[C@@H]1CC=C(CO)CC1    4 fold
COC1=C(OC)C(=O)C(C/C=C(\C)CC/C=C(\C)CC/C=C(\C)CC/C=C(\C)CC/C=C(\C)CC/C=C(\C)CC/C=C(\C)CC/C=C(\C)CC/C=C(\C)CCC=C(C)C)=C(C)C1=O    inactive

[in] // lookup FXR-dependent activity, induction for COC1=C(OC)C(=O)C(C/C=C(\C)CC/C=C(\C)CC/C=C(\C)CC/C=C(\C)CC/C=C(\C)CCC=C(C)C)=C(C)C1=O
[out] inactive

[in] Consider the compound CNC(=O)Oc1cccc2ccccc12 and give its measured FXR-dependent activity, induction.
[out] inactive
